biological target: PI3Kα H1047R (T47D cells) (Homo sapiens, UniProt P42336, H1047R); construct: endogenous in cells; host or cells: T47D cells; experiment: PI3Kα cellular assay: pAKT HTRF in T47D cells after EGF stimulation; assay type: cell-based; details: selectivity of T47D (H1047R) over SKBR3 (WT) pAKT IC50
Sequence (P42336 whole entry H1047R): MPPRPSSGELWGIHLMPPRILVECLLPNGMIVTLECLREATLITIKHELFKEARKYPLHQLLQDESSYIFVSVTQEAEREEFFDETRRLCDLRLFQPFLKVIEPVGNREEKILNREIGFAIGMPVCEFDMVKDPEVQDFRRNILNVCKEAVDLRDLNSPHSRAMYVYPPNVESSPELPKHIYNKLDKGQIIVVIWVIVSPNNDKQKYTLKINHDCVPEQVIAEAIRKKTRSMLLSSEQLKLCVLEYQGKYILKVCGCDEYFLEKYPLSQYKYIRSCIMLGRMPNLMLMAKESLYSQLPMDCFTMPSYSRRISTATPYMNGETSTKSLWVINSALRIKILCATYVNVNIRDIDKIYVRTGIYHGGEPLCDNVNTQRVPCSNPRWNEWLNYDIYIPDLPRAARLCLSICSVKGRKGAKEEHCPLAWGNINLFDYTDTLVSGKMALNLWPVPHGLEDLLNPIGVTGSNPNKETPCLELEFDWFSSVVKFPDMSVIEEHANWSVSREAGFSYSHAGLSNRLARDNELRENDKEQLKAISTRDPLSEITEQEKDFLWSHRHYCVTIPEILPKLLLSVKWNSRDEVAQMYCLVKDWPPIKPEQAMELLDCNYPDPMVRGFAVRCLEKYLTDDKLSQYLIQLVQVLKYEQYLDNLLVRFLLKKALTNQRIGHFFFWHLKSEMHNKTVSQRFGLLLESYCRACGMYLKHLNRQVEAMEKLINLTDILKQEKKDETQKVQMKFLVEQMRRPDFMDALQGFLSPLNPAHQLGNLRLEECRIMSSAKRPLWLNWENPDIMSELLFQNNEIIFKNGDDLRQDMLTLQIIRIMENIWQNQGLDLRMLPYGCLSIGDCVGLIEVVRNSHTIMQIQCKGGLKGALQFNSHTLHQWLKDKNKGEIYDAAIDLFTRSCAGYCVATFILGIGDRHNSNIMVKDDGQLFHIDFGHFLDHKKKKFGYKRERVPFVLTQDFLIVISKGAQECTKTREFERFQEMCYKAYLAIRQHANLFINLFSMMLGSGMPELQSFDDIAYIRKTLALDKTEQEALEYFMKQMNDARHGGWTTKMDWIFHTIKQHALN
Sequence (P27986 whole entry partner): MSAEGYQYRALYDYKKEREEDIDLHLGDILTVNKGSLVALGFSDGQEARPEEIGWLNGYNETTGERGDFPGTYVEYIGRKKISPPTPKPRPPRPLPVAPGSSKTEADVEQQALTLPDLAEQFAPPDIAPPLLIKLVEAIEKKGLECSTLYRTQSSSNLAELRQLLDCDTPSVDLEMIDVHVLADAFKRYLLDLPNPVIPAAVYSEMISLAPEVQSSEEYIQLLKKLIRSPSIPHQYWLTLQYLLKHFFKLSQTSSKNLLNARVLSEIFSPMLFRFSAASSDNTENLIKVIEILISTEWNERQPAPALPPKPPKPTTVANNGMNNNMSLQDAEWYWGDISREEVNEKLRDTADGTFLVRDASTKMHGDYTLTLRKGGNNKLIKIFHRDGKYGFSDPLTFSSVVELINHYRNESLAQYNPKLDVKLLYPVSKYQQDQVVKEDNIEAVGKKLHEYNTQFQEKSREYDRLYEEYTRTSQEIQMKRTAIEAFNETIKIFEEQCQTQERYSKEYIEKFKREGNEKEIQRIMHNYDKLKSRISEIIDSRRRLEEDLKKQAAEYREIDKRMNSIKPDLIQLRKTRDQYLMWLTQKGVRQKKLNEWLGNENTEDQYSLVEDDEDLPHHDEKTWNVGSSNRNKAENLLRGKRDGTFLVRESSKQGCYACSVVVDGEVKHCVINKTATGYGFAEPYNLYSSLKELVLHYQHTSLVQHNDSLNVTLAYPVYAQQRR
Experimental Readout: T47D pAKT S473 HTRF IC50 (H1047R): T47D (H1047R) selectivity over SKBR3 (WT)

Molecule: Cc1cc([C@@H](C)Nc2ccccc2C(=O)O)c2nc(-c3ccc4c(c(N)nn4C)c3C)c(C)c(=O)n2c1
System Tested: PI3Kα H1047R (T47D cells) (Homo sapiens, UniProt P42336, H1047R)
Result: C (C denotes ≤5-fold)
--
Molecule: Cc1cc([C@@H](C)Nc2ccccc2C(=O)O)c2nc(-c3ccnc(C4CC4)c3)c(C)c(=O)n2c1 (single isomer, unassigned)
System Tested: PI3Kα H1047R (T47D cells) (Homo sapiens, UniProt P42336, H1047R)
Result: A (A denotes >20-fold)
--
Molecule: Cc1cc([C@@H](C)N[C@@H]2CCCC[C@@H]2C(=O)O)c2nc(N3CCOCC3)cc(=O)n2c1
System Tested: PI3Kα H1047R (T47D cells) (Homo sapiens, UniProt P42336, H1047R)
Result: C (C denotes ≤5-fold)
--
Molecule: Cc1cc([C@H](C)Nc2ccccc2S(N)(=O)=O)c2nc(-c3ccc4c(C)nn(C5CC5)c4c3)c(C)c(=O)n2c1
System Tested: PI3Kα H1047R (T47D cells) (Homo sapiens, UniProt P42336, H1047R)
Result: C (C denotes ≤5-fold)
--
Molecule: Cc1cc([C@H](C)Nc2ccccc2C(=O)O)c2nc(-c3ccc4c(c3)c(N(C)C)nn4C)c(C)c(=O)n2c1
System Tested: PI3Kα H1047R (T47D cells) (Homo sapiens, UniProt P42336, H1047R)
Result: C (C denotes ≤5-fold)
--
Molecule: Cc1cc(C(C)Nc2ccccc2C(=O)O)c2nc(-c3ccc4c(c3)c(C#N)nn4C3CC3)c(C)c(=O)n2c1 (stereo not shown)
System Tested: PI3Kα H1047R (T47D cells) (Homo sapiens, UniProt P42336, H1047R)
Result: A (A denotes >20-fold)
--
Molecule: Cc1cc(C(C)Nc2ccccc2C(=O)O)c2nc(-c3ccc4c(c3)c(C)nn4C)cc(=O)n2c1 (stereo not shown) [Compound 695]
System Tested: PI3Kα H1047R (T47D cells) (Homo sapiens, UniProt P42336, H1047R)
Result: A (A denotes >20-fold)

Ref: patent US20260132129A1
